Parameter: ratio to parent. Scope: all listed entries.
B1: H2-Kb / F4 (parent complex)
chain 1: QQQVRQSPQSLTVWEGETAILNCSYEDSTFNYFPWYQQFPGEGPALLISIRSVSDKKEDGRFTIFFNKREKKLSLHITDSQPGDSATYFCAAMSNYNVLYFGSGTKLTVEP
chain 2: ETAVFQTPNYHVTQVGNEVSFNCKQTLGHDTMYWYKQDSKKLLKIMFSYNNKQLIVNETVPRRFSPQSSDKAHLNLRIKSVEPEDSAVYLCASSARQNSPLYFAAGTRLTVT
chain 3: not shown
chain 4: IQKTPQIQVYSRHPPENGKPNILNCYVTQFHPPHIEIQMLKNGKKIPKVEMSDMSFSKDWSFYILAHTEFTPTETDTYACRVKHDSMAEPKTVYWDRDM
chain 5: SIINFEKL

Variants of: B1
Assay: % of reporter cells activated (NFAT-GFP), raw; note: test concentration or dose not given here
Readout: ratio to parent

>>> print(df.to_string())
    variant_key  obs_value
 0  chain 5 L8C      0.783
 1  chain 5 I3N      0.188
 2  chain 5 L8A      0.395
 3  chain 5 N4Q     0.0116
 4  chain 5 F5Y      0.526
 5  chain 5 I2G       1.45
 6  chain 5 K7L       0.85
 7  chain 5 F5D      0.129
 8  chain 5 F5N      0.225
 9  chain 5 S1D     0.0189
10  chain 5 F5E     0.0661
11  chain 5 K7P     0.0549
12  chain 5 L8R      0.276
13  chain 5 E6P     0.0487
14  chain 5 K7C      0.377
15  chain 5 I3K      0.262
16  chain 5 S1F     0.0348
17  chain 5 I3Q     0.0638
18  chain 5 K7M      0.651
19  chain 5 N4H     0.0344
20  chain 5 K7E      0.105
21  chain 5 K7Y       1.03
